Listed here: items and their measured TGI.
- Test system: M14 melanoma
- ASSAY TEXT: NCI tumour cell line growth inhibition, 48 h
READOUT LABEL: TGI (µM)

{"COMPOUND": "CC(C)(C)NNc1c([N+](=O)[O-])cnn(-c2ccccc2)c1=O", "READOUT LABEL": "TGI", "QUAL": "=", "OBSERVED MEASUREMENT": 4.88}
{"COMPOUND": "Cc1ccccc1NC(=O)c1[nH]c(=S)nc(N)c1-c1ccccc1C", "READOUT LABEL": "TGI", "QUAL": ">", "OBSERVED MEASUREMENT": 100}
{"COMPOUND": "CCN1C(=O)N(c2c(F)c(OC)cc(OC)c2F)Cc2cnc3[nH]c(CN4CCOCC4)cc3c21", "READOUT LABEL": "TGI", "QUAL": ">", "OBSERVED MEASUREMENT": 100}
{"COMPOUND": "C=C(C)C1CC2=C(C(=O)OC)C=C(O2)C(C(=C)C)[C@@H]2OC(=O)/C(=C\\C1O)[C@H]2N(C)C (stereo not given in full)", "READOUT LABEL": "TGI", "QUAL": "=", "OBSERVED MEASUREMENT": 29.7}
{"COMPOUND": "CC1=C(C(=O)Nc2ccc(F)c(Cl)c2)C(c2cccc(Cl)c2)NC(=O)N1 (stereo not given)", "READOUT LABEL": "TGI", "QUAL": "=", "OBSERVED MEASUREMENT": 31.7}

----------
- Test system: NCI-H460 lung
- ASSAY TEXT: NCI tumour cell line growth inhibition, 48 h
Please use criterion met whenever TGI is not below 3 µM, and criterion not met whenever it is.

{"MOLECULE": "CC(C)(C)NNc1c([N+](=O)[O-])cnn(-c2ccccc2)c1=O", "TARGET OF ASSAY": "NCI-H460 lung", "CLASS": "criterion met"}
{"MOLECULE": "CNCCNc1nc2ccccc2c2c(=O)c3cccc(OC)c3sc12", "TARGET OF ASSAY": "NCI-H460 lung", "CLASS": "criterion not met"}
{"MOLECULE": "CCc1nnc2sc(-c3ccc(-c4ccc(Cl)cc4Cl)o3)nn12", "TARGET OF ASSAY": "NCI-H460 lung", "CLASS": "criterion met"}
{"MOLECULE": "CCOC(=O)/C(O)=C(\\C=N\\C(=S)Nc1ccc(Cl)c(Cl)c1)C(=O)OCC", "TARGET OF ASSAY": "NCI-H460 lung", "CLASS": "criterion met"}
{"MOLECULE": "C(=N\\NC1=NCCCN1)/c1ccc(-c2cn3cc(/C=N/NC4=NCCCN4)ccc3n2)cc1", "TARGET OF ASSAY": "NCI-H460 lung", "CLASS": "criterion met"}
{"MOLECULE": "CC1=C(C(=O)Nc2ccc(F)c(Cl)c2)C(c2cccc(Cl)c2)NC(=O)N1 (centres undefined)", "TARGET OF ASSAY": "NCI-H460 lung", "CLASS": "criterion met"}
{"MOLECULE": "O=c1c(-c2ccccc2)c[nH]c2cc([N+](=O)[O-])c(/C(Cl)=C/c3ccccc3)cc12", "TARGET OF ASSAY": "NCI-H460 lung", "CLASS": "criterion met"}
{"MOLECULE": "C=C1C(=O)OC2C(C)C3C=CC(=O)[C@@]3(C)C(OC(=O)/C(C)=C/C)C1[C@@H]2OC(C)=O (some centres undefined)", "TARGET OF ASSAY": "NCI-H460 lung", "CLASS": "criterion not met"}
{"MOLECULE": "CCOC(=O)C1(C(=O)OCC)C[C@H]2CON=C2[C@@H]1c1ccc(C(F)(F)F)cc1", "TARGET OF ASSAY": "NCI-H460 lung", "CLASS": "criterion met"}

Values were extracted from PubChem BioAssay (NCI).
